B1: SNAP91 (parent)
chain: FSTDAFSSPPQGASPVPESSLTAD

Variants of: B1
procedure details: protein stability index of a GFP-peptide fusion (GPS, HEK-293T) (PSI 1-6); higher = more stable;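 note: lentivirally expressed fusions sorted by FACS into six bins by GFP to DsRed ratio, PSI derived from sequencing read proportions per bin multiplied by bin number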
condition: c terminus: a fixed tail appended
Kind request: treat 3 as inclusive, so protein stability index at 3 or higher is Y, anything lower is N.

P9D    Y
T3R    Y
S19Y    Y

Problem: Determine whether this variant has protein stability index no lower than 3: `P17W`
Result: N

Problem: Determine whether this variant has protein stability index no lower than 3: `T3D`
Result: Y

Problem: Determine whether this variant has protein stability index no lower than 3: `Q11P`
Result: Y

Problem: Is it the case that `L21N` has protein stability index reaching or exceeding 3?
Result: Y

Problem: Check this variant for protein stability index at or above 3: `A5V`
Result: Y

Problem: Given the entry `S8A` , answer whether its protein stability index meets or surpasses 3.
Result: Y

Problem: Item `P17A` with protein stability index of 3 or above?
Result: Y

Problem: Please indicate if the recorded protein stability index for `E18F` meets or exceeds 3.
Result: N
